target: sc-urokinase (uPA) (Homo sapiens); construct: purchased Ribosepharm GmbH, Haan, Germany; experiment: In-vitro inhibition of urokinase, chromogenic substrate, Dixon Ki; assay type: biochemical; details: 25° C., pH 8.0; average of at least three determinations; read-out: Ki uPA
Measured Quantity: Ki (µM)

The examples below pair each entry with its known result.
CC(=O)Nc1ncc(S(=O)(=O)NCc2ccc(NC(=N)N)cc2)s1 | 240
CC(=O)Nc1ccc(S(=O)(=O)NCC(=O)NCc2ccc(NC(=N)N)cc2)cc1 | 22
CCOC(=O)NCc1ccc(NC(=N)N)cc1 | 27

[A] N=C(N)Nc1ccc(CNC(=O)OC23C[C@H]4C[C@@H](C2)C[C@@H](C3)C4)cc1
[B] CC(C)OC(=O)NCc1ccc(NC(=N)N)cc1
In: Hi! Which is lower in terms of Ki, the first one A or the second one B ? Could you answer with the label of the item you picked?
Out: A
